This listing pairs compounds with measured Ki.
# tgt: Human immunodeficiency virus type 1 protease (Human immunodeficiency virus 1, UniProt Q72874)
property-name: Ki (nM)

- molecule-smiles: "CCN(C(C)C)S(=O)(=O)CC[C@@H]1O[C@@H]1[C@H](Cc1ccccc1)NC(=O)[C@@H](NC(=O)c1ccc2ccccc2n1)C(C)(C)S(C)(=O)=O"
  test-result: 7
- molecule-smiles: "CC(C)(C)NS(=O)(=O)CC[C@@H]1O[C@@H]1[C@H](Cc1ccccc1)NC(=O)[C@@H](NC(=O)OCc1ccccc1)C(C)(C)S(C)(=O)=O"
  test-result: 0.7
- molecule-smiles: "CCN(C(C)C)S(=O)(=O)CC[C@@H]1O[C@@H]1[C@H](Cc1ccccc1)NC(=O)[C@@H](NC(=O)c1cccs1)C(C)(C)S(C)(=O)=O"
  test-result: 3.1

###

Recorded K inact/Ki for the following compounds
# tgt: Human immunodeficiency virus type 1 protease (Human immunodeficiency virus 1) (UniProt Q72874)
# test-method-notes: Bimolecular rate constant for the formation of HIV-1 protease complex was evaluated

- molecule-smiles: "CCN(C(C)C)S(=O)(=O)CC[C@@H]1O[C@@H]1[C@H](Cc1ccccc1)NC(=O)[C@@H](NC(=O)c1cccs1)C(C)(C)S(C)(=O)=O"
  K inact/Ki [M⁻¹ s⁻¹]: "1.05e+06"
- molecule-smiles: "CCN(C(C)C)S(=O)(=O)CC[C@@H]1O[C@@H]1[C@H](Cc1ccccc1)NC(=O)[C@@H](NC(=O)OCc1ccccc1)C(C)(C)S(C)(=O)=O"
  K inact/Ki [M⁻¹ s⁻¹]: "1.63e+06"
- molecule-smiles: "CCN(c1ccccc1)S(=O)(=O)CC[C@@H]1O[C@@H]1[C@H](Cc1ccccc1)NC(=O)[C@@H](NC(=O)OCc1ccccc1)C(C)(C)S(C)(=O)=O"
  K inact/Ki [M⁻¹ s⁻¹]: 717000

###

# tgt: UniProtKB Q72874
# test-method-notes: Bimolecular rate constant for the formation of HIV-1 protease complex was evaluated
# Lookup of reported log10 of K inact/Ki keyed by entry
property-name: log10 of K inact/Ki (log10 of the value in M⁻¹ s⁻¹)

- compound: "CCN(CC(C)C)S(=O)(=O)CC[C@@H]1O[C@@H]1[C@H](Cc1ccccc1)NC(=O)[C@@H](NC(=O)OCc1ccccc1)C(C)(C)S(C)(=O)=O"
  log10 of K inact/Ki: 6.06
- compound: "CC(C)C(NC(=O)C[C@@H]1O[C@@H]1[C@H](Cc1ccccc1)NC(=O)[C@H](CC(N)=O)NC(=O)c1ccc2ccccc2n1)C(C)C"
  log10 of K inact/Ki: 6.52
- compound: "CCN(C(C)C)S(=O)(=O)CC[C@@H]1O[C@@H]1[C@H](Cc1ccccc1)NC(=O)[C@@H](NC(=O)c1ccc2ccccc2n1)C(C)(C)S(C)(=O)=O"
  log10 of K inact/Ki: 5.68
- compound: "CC(C)(C)NS(=O)(=O)CC[C@@H]1O[C@@H]1[C@H](Cc1ccccc1)NC(=O)C(CC(N)=O)NC(=O)c1ccc2ccccc2n1 (some centres not stated)"
  log10 of K inact/Ki: 5.40
- compound: "CC(C)N(C(=O)c1ccccc1)S(=O)(=O)CC[C@@H]1O[C@@H]1[C@H](Cc1ccccc1)NC(=O)[C@@H](NC(=O)OCc1ccccc1)C(C)(C)S(C)(=O)=O"
  log10 of K inact/Ki: 5.96
- compound: "CCN(c1ccccc1)S(=O)(=O)CC[C@@H]1O[C@@H]1[C@H](Cc1ccccc1)NC(=O)[C@@H](NC(=O)c1ccc2ccccc2n1)C(C)(C)S(C)(=O)=O"
  log10 of K inact/Ki: 5.81
- compound: "CC(C)(C)NS(=O)(=O)CC[C@@H]1O[C@@H]1[C@H](Cc1ccccc1)NC(=O)[C@@H](NC(=O)OCc1ccccc1)C(C)(C)S(C)(=O)=O"
  log10 of K inact/Ki: 6.12
